target or test system: SOS1 and KRAS G12D (protein-protein interaction) (Homo sapiens, UniProt Q07889)
assay: KRAS::SOS1 AlphaScreen binding assay
condition description: read-out: IC50 (SOS1)
Provide the recorded log10(IC50) for the entries that follow.
The base-10 logarithm of IC50, taken with IC50 in nM, is what appears here.

# count of solved cases: 2
> print(dat)
                                   compound  measurement.kind  numeric.readout
1  COc1cc2nc(C)nc(N[C@H](C)c3cc(N)cc(C(F)(F)F)c3F)c2cc1C1CCN(C(C)=O)CC1       log10(IC50)             0.30
2  Cc1nc(N[C@H](C)c2cc(N)cc(C(F)(F)F)c2)c2cc(C3CCS(=O)(=O)CC3)cc(C)c2n1       log10(IC50)             0.78

Each compound below has a recorded value; state its log10(IC50).
1. COc1cc2nc(C)nc(N[C@H](C)c3cc(N)cc(C(F)(F)F)c3C)c2cc1[C@H]1CC[C@H](C(=O)N(C)C)CC1
2. CNC(=O)CC(C)c1cc2c(N[C@H](C)c3cccc(C(F)(F)F)c3)nc(C)nc2cc1OC (stereo partly drawn)
3. Cc1nc(N[C@H](C)c2cc(N)cc(C(F)(F)F)c2)c2cc(-c3ccn(C)c(=O)c3)c(C)cc2n1
4. COc1cc2nc(C)nc(N[C@H](C)c3cc(N)cc(C(F)(F)F)c3F)c2cc1-c1ccc(=O)n(C)c1
5. Cc1nc(N[C@H](C)c2cccc(C(F)(F)F)c2)c2cc(C(C)CC(=O)NC3CC3)c(C)cc2n1 (stereo partly drawn)
6. CC(=O)N1CCC(c2cc(C)c3nc(C)nc(N[C@H](C)c4cccc(C)c4)c3c2)CC1
7. CNC(=O)CC(C)c1ccc2nc(C)nc(N[C@H](C)c3cccc(C(F)(F)F)c3)c2c1 (stereo partly drawn)

output:
1. 0.30
2. 1.23
3. 0.85
4. 0.90
5. 1.08
6. 1.38
7. 1.56

Each compound below has a recorded value; state its log10(IC50).
1. COCCN1CCN(C(=O)[C@H]2CC[C@@H](c3ccc4nc(C)nc(N[C@H](C)c5cc(N)cc(C(F)(F)F)c5)c4c3)CC2)CC1
2. Cc1nc(N[C@H](C)c2cc(N)cc(C(F)(F)F)c2)c2cc([C@H]3CC[C@@H](C(=O)N(C)CCO)CC3)ccc2n1
3. COc1cc2nc(C)nc(N[C@H](C)c3cccc(C)c3)c2cc1C1CCS(=O)(=O)CC1
4. Cc1nc(N[C@H](C)c2cc(N)cc(C(F)(F)F)c2C)c2cc(C3CCS(=O)(=O)CC3)ccc2n1
5. COc1cc2nc(C)nc(N[C@H](C)c3cc(N)cc(C(F)(F)F)c3)c2cc1[C@H]1CC[C@@H](C(=O)N2CCOCC2)CC1

output:
1. 0.85
2. 0.85
3. 1.26
4. 0.60
5. 1.40

input: Provide the reported log10(IC50) (system: SOS1 and KRAS G12D (protein-protein interaction) (Homo sapiens, UniProt Q07889)) for COCCN(C)C(=O)[C@H]1CC[C@@H](c2cc3c(N[C@H](C)c4cc(N)cc(C(F)(F)F)c4)nc(C)nc3cc2OC)CC1
output: 1.69
